- System: CAKI-1 renal
- Assay Summary: NCI tumour cell line growth inhibition, 48 h
Below: a set of entries, each annotated with reported TGI.

compound=Cc1ccc(Sc2ccc(C)cc2[N+](=O)[O-])c([N+](=O)[O-])c1 recorded_result="> 10 µM"

The recorded TGI for CCOc1cc2c(cc1OC(C)=O)C(=O)CC[C@H]1C3CC[C@H](OC(C)=O)[C@@]3(C)CC[C@H]21 (stereo partly drawn) is > 100 µM

The recorded TGI for CCSc1nc(=[N+]2CCCC2)ss1 is > 100 µM

The recorded TGI for Cc1ccc(-c2c(C#N)c(N)nc3c2CCS(=O)(=O)c2ccccc2-3)cc1 is > 100 µM

The recorded TGI for Cn1cc(-c2ccc(-c3cn(C)c4ccc(Cl)cc34)s2)c2cc(Cl)ccc21 is > 100 µM

The recorded TGI for C/C=C/[C@@H]1OC(=O)C2=C[C@@H](O)[C@@H](/C=C/C)O[C@H]21 is 3.81 µM

The recorded TGI for CN(C)CCn1c(=O)c2ccc3c4c(nn3CCN(C)C)c3cc(O)ccc3n(c1=O)c24 is 0.291 µM

The recorded TGI for COc1cccc2c1C(=O)c1ccc3cc(CCl)cc(O)c3c1C2=O is 1.7 µM

The recorded TGI for COc1cc(Oc2nc3c(N)cc(C(F)(F)F)cc3nc2-c2ccccc2)cc(OC)c1OC is > 45.2 µM

The recorded TGI for CCCC(Sc1ccccc1)P(=O)(c1ccccc1)c1ccccc1 (stereo not drawn) is > 100 µM

The recorded TGI for CS/C(C)=N/OC(=O)NCCCCNc1ccc(N=[N+]=[N-])cc1 is > 100 µM

The recorded TGI for Clc1nc(NCCc2ccccc2)c2ncn(-c3ccccc3)c2n1 is 34 µM

The recorded TGI for CC(=O)N(CN1C(=O)CCC1C(=O)O)c1cccc(O)c1 (stereo not drawn) is > 100 µM

The recorded TGI for S=C(Nc1cc(Cl)c(Cl)cc1Cl)SCc1ccccc1 is 44 µM
